- assay.target: Tyrosine-protein phosphatase non-receptor type 1 (Homo sapiens, UniProt P18031)
- Sequence (P18031 whole entry): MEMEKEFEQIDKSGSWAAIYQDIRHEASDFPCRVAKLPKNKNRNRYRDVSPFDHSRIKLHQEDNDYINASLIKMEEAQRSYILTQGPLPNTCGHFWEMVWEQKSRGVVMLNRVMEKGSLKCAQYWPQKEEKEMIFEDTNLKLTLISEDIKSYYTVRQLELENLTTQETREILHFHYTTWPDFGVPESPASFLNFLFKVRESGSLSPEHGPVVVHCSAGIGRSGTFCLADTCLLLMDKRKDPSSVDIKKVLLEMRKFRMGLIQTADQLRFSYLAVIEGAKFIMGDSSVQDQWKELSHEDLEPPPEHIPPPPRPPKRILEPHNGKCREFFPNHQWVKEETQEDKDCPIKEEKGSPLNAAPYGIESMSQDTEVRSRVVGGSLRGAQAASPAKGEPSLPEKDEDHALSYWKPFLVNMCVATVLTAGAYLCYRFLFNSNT
pIC50: −log10 of the molar value.
reported.property: pIC50

c1csc(CNc2ccc3nsnc3c2)c1 : 4.32
Nc1cc2nsnc2cc1C#CCCCCCl : 4.42

====

- assay.target: UniProtKB Q06124
- test.name: Inhibition of SHP2 (unknown origin) at 20 ug/ml using 3-o-methylfluorescein phosphate as substrate by fluorescence assay
reported.property: inhibition

Some compounds with recorded inhibition:
c1coc(CNc2ccc3nsnc3c2)c1 : < 50%
O=[N+]([O-])c1cc2nsnc2cc1C#Cc1ccccc1 : < 50%
CC(C)(C)C#Cc1cc2nsnc2cc1[N+](=O)[O-] : < 50%

Okay, now this compound:
Qu. inhibition for `c1cc2nsnc2cc1NCC1CCCCC1` ?
Ans. < 50%

====

- assay.target: Tyrosine-protein phosphatase non-receptor type 11 (Homo sapiens)
reported.property: IC50 (µM)

[I] Nc1ccc2nsnc2c1
[II] c1csc(CNc2ccc3nsnc3c2)c1
[III] Nc1cc2nsnc2cc1C#CCCCCCl
Qu. # sort list by recorded IC50, greatest to least API: response body holds the labels in the requested order.
Ans. I, II, III
(I: 39.1 µM, II: 23.9 µM, III: 5.81 µM)

====

- assay.target: UniProtKB P29350
- Sequence (P29350 whole entry): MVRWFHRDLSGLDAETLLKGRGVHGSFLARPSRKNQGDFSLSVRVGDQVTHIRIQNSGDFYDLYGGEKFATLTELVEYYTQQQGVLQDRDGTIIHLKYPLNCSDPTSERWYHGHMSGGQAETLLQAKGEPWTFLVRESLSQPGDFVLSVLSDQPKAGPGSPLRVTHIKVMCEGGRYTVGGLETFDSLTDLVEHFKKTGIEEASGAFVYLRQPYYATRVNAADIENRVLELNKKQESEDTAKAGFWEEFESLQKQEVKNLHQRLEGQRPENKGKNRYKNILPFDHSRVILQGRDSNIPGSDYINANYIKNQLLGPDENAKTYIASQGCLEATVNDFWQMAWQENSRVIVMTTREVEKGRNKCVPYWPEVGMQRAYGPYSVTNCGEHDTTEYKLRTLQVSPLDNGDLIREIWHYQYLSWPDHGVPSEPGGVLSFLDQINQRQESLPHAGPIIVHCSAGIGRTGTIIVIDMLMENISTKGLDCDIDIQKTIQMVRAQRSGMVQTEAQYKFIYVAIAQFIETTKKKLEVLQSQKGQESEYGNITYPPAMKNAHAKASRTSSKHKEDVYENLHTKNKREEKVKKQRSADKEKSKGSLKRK
reported.property: IC50 (µM)
API: value field is a number in µM; no unit string.

Qu. Given the entry `C#Cc1cc2nsnc2cc1N` , what IC50 was observed with UniProtKB P29350?
Ans. 4.28
